- System: C33A cervical carcinoma cells
- protocol_notes: Cancer cell viability by cellular ATP levels (ViaLight), C33A
- Assay type: cell-based
- recorded_conditions: Homo sapiens, C-33-A, 72 h, 3 days of incubation, ATP levels relative to untreated control
pIC50: −log10 of the molar value.
Given measured pIC50, output criterion met if it is greater than or equal to 6 and criterion not met if not.

{"smiles_string": "COC1=CC(c2ccc(OC)c(O)c2)=NC1=Cc1[nH]c(C)cc1C", "qualitative_label": "criterion not met"}
{"smiles_string": "COC1=CC(c2ccc(C(=O)N3CCCC3)cc2)=NC1=Cc1[nH]c(C)cc1C", "qualitative_label": "criterion not met"}
{"smiles_string": "COC1=CC(c2cccc3ncccc23)=NC1=Cc1[nH]c(C)cc1C", "qualitative_label": "criterion not met"}
{"smiles_string": "COC1=CC(c2ccc3c(c2)OCCO3)=NC1=Cc1[nH]c(C)cc1C", "qualitative_label": "criterion not met"}
{"smiles_string": "COC1=CC(c2ccc(C=O)cc2)=NC1=Cc1[nH]c(C)cc1C", "qualitative_label": "criterion not met"}
{"smiles_string": "Cc1cc(C)c(C=C2N=C(c3ccc4c(c3)OCO4)C=C2OCc2ccccc2)[nH]1", "qualitative_label": "criterion not met"}
{"smiles_string": "COC1=CC(c2ccc(N(C)C)cc2)=NC1=Cc1[nH]c(C)cc1C", "qualitative_label": "criterion met"}
{"smiles_string": "COC1=CC(c2cccnc2F)=NC1=Cc1[nH]c(C)cc1C", "qualitative_label": "criterion not met"}
{"smiles_string": "COC1=CC(c2cccs2)=NC1=Cc1[nH]c(C)cc1C", "qualitative_label": "criterion not met"}
{"smiles_string": "COC1=CC(c2ccc(COC(C)(C)C)cc2)=NC1=Cc1[nH]c(C)cc1C", "qualitative_label": "criterion not met"}
{"smiles_string": "COC1=CC(c2ccc(OC)nc2)=NC1=Cc1[nH]c(C)cc1C", "qualitative_label": "criterion not met"}
{"smiles_string": "COC1=CC(c2ccc(NS(C)(=O)=O)cc2)=N/C1=C\\c1[nH]c(C)cc1C", "qualitative_label": "criterion not met"}
{"smiles_string": "COC1=CC(c2ccc(OC)cc2C=O)=NC1=Cc1[nH]c(C)cc1C", "qualitative_label": "criterion not met"}
{"smiles_string": "COC1=CC(c2cnn(Cc3ccccc3)c2)=NC1=Cc1[nH]c(C)cc1C", "qualitative_label": "criterion met"}
{"smiles_string": "COC1=CC(c2cccnc2Cl)=NC1=Cc1[nH]c(C)cc1C", "qualitative_label": "criterion not met"}
{"smiles_string": "COC1=CC(c2ccco2)=NC1=Cc1[nH]c(C)cc1C", "qualitative_label": "criterion not met"}
{"smiles_string": "COC1=CC(c2ccc(OC)c(C)c2)=NC1=Cc1[nH]c(C)cc1C", "qualitative_label": "criterion met"}
{"smiles_string": "COC1=CC(c2ccc3cc(OC)ccc3c2)=NC1=Cc1[nH]c(C)cc1C", "qualitative_label": "criterion not met"}
{"smiles_string": "COC1=CC(c2cncnc2)=NC1=Cc1[nH]c(C)cc1C", "qualitative_label": "criterion not met"}
{"smiles_string": "COC1=CC(c2ccc(Cl)cc2)=NC1=Cc1[nH]c(C)cc1C", "qualitative_label": "criterion not met"}
{"smiles_string": "COc1ccc(C2=NC(=Cc3[nH]c(C)cc3C)C(OCc3ccccc3)=C2)cc1OC", "qualitative_label": "criterion met"}
{"smiles_string": "COC1=CC(c2ccc(F)cc2)=NC1=Cc1[nH]c(C)cc1C", "qualitative_label": "criterion not met"}

Reference for the values: patent US8420693B2
